Where do the numbers come from? From the MegaScale stability set (Tsuboyama et al. 2023).

folding stability dG by entry:
B1: EHEE_rd3_0053 (parent)
chain: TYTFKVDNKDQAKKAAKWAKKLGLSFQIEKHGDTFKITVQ

Variants of: B1
Assay: folding stability dG (cDNA display proteolysis); higher = more stable
Conditions: PBS, room temperature
The reply should be a number in kcal/mol, with the unit left off.

Worked examples, 5 variants total:
>>> experimental_value("T1P")
2.15
>>> experimental_value("A19F")
2.84
>>> experimental_value("A12D")
-0.537
>>> experimental_value("G32L")
1.7
>>> experimental_value("N8K")
1.62

Please look up its folding stability dG: A15L
2.82

Please look up its folding stability dG: F35W
2.75

Please look up its folding stability dG: A16D
0.642
